System: MC-3T3 E1 clone 4 (CL4) osteoblast cells
Assay Overview: Osteocalcin expression during in vitro osteoblast differentiation, PEGylated analogs (Example 6)
Format: cell-based
Applied Conditions: Table 17; test peptide 2 μg/mL; 18-21 day interval
Non-standard residues stand in square brackets, D forms with d. Primed or numbered codes have the meaning given here. No end group written: not given here. PEG20′ = PEG20 chain (pegylated), attached via a cysteine
Recorded Metric: Fold increase vs SEQ ID NO: 1 ± SE (fold)
Give your result in fold as a bare value.

Some solved cases for reference:
>>> numeric_readout("63 ([PEG20′]CKHHLGLEEPKKLR) [compound 63]")
1.4
>>> numeric_readout("65 ([PEG20′]CHHLGLEEPKK) [compound 65]")
1.4
>>> numeric_readout("64 (KHHLGLEEPKKLR; not fully specified; MOD_RES (13)..(13) Pegylated) [compound 64]")
2.2

# get_value(readout= Fold increase vs SEQ ID NO: 1 ± SE, system= MC-3T3 E1 clone 4 (CL4) osteoblast cells) for 66 (HHLGLEEPKK; not fully specified; MOD_RES (10)..(10) Pegylated) [compound 66] 2.2

# get_value(readout= Fold increase vs SEQ ID NO: 1 ± SE, system= MC-3T3 E1 clone 4 (CL4) osteoblast cells) for 67 ([PEG20′]CHLGLEEPKK) [compound 67] 1.9

----------
Assay Overview: Pharmacokinetics of acylated analogs in male Sprague Dawley rats after subcutaneous injection (Example 11)
Format: in vivo
Set-up: concentration or dose not given beside the values
Applied Conditions: male, Sprague Dawley, plasma; sc, rat, Table 24
Residues, ends and D or L forms follow the SMILES beside them. *: point of attachment. C16 diacid = O=C(O)CCCCCCCCCCCCCCC(=O)*; Stearoyl = CCCCCCCCCCCCCCCCCC(=O)*; Palmitoyl = CCCCCCCCCCCCCCCC(=O)*
Recorded Metric: AUC(0-t) (µM·h)
Give your result in µM·h as a bare value.

Could you share which AUC(0-t) value was measured for CC(C)C[C@H](NC(=O)CNC(=O)[C@H](CC(C)C)NC(=O)[C@H](Cc1c[nH]cn1)NC(=O)CCCCCCCCCCCCCCC(=O)O)C(=O)N[C@@H](CCC(=O)O)C(=O)N[C@@H](CCC(=O)O)C(=O)N1CCC[C@H]1C(=O)N[C@@H](CCCCN)C(=O)N[C@@H](CCCCN)C(=O)O [compound 75] ({C16 diacid}-HLGLEEPKK-OH; C-terminus assumed) ? 1.14

Could you share which AUC(0-t) value was measured for CCCCCCCCCCCCCCCCCC(=O)N[C@@H](Cc1c[nH]cn1)C(=O)N[C@@H](CC(C)C)C(=O)NCC(=O)N[C@@H](CC(C)C)C(=O)N[C@@H](CCC(=O)O)C(=O)N[C@@H](CCC(=O)O)C(=O)N1CCC[C@H]1C(=O)N[C@@H](CCCCN)C(=O)N[C@@H](CCCCN)C(=O)O [compound 73] (Stearoyl-HLGLEEPKK-OH) ? 4.81

Could you share which AUC(0-t) value was measured for CCCCCCCCCCCCCCCC(=O)N[C@@H](CCCCN)C(=O)N[C@@H](Cc1c[nH]cn1)C(=O)N[C@@H](Cc1c[nH]cn1)C(=O)N[C@@H](CC(C)C)C(=O)NCC(=O)N[C@@H](CC(C)C)C(=O)N[C@@H](CCC(=O)O)C(=O)N[C@@H](CCC(=O)O)C(=O)N1CCC[C@H]1C(=O)N[C@@H](CCCCN)C(=O)N[C@@H](CCCCN)C(=O)N[C@@H](CC(C)C)C(=O)N[C@@H](CCCNC(=N)N)C(=O)O [compound 78] (Palmitoyl-KHHLGLEEPKKLR-OH) ? 0.01

----------
Assay Overview: Stability of HBD1 fragments in human plasma
Assay type: in vitro ADME
Applied Conditions: human, human K2EDTA plasma; spiked at 1 μg/mL; 37° C.; 24 hours; read-out: Remaining parent peptide in human plasma 24 hours post spike
No end group written: not given here.
Entries and their remaining at 24 h, 1 μg/mL values follow.
Give your result in % as a bare value.

>>> numeric_readout("HLGLEEPKK [compound 10]")
92

Now examine the next entry.
Could you share which remaining at 24 h, 1 μg/mL value was measured for KHHLGLEEPKKLR [compound 1] ? 29

----------
Assay Overview: Pharmacokinetics of acylated analogs in male Sprague Dawley rats after subcutaneous injection (Example 11)
Assay type: in vivo
Set-up: concentration or dose not given beside the values
Applied Conditions: male, Sprague Dawley, plasma; sc, rat, Table 24
Residues, ends and D or L forms follow the SMILES beside them. *: point of attachment. Arachidoyl = CCCCCCCCCCCCCCCCCCCC(=O)*; Palmitoyl = CCCCCCCCCCCCCCCC(=O)*; Myristoyl = CCCCCCCCCCCCCC(=O)*
Entries and their AUC(0-t) values follow.
Give your result in µM·h as a bare value.

Some solved cases for reference:
>>> numeric_readout("CCCCCCCCCCCCCCCC(=O)N[C@@H](Cc1c[nH]cn1)C(=O)N[C@@H](CC(C)C)C(=O)NCC(=O)N[C@@H](CC(C)C)C(=O)N[C@@H](CCC(=O)O)C(=O)N[C@@H](CCC(=O)O)C(=O)N1CCC[C@H]1C(=O)N[C@@H](CCCCN)C(=O)N[C@@H](CCCCN)C(=O)O [compound 72] (Palmitoyl-HLGLEEPKK-OH)")
1.34
>>> numeric_readout("CCCCCCCCCCCCCCCCCCCC(=O)N[C@@H](Cc1c[nH]cn1)C(=O)N[C@@H](CC(C)C)C(=O)NCC(=O)N[C@@H](CC(C)C)C(=O)N[C@@H](CCC(=O)O)C(=O)N[C@@H](CCC(=O)O)C(=O)N1CCC[C@H]1C(=O)N[C@@H](CCCCN)C(=O)N[C@@H](CCCCN)C(=O)O [compound 74] (Arachidoyl-HLGLEEPKK-OH)")
2.58

Could you share which AUC(0-t) value was measured for CCCCCCCCCCCCCC(=O)N[C@@H](Cc1c[nH]cn1)C(=O)N[C@@H](CC(C)C)C(=O)NCC(=O)N[C@@H](CC(C)C)C(=O)N[C@@H](CCC(=O)O)C(=O)N[C@@H](CCC(=O)O)C(=O)N1CCC[C@H]1C(=O)N[C@@H](CCCCN)C(=O)N[C@@H](CCCCN)C(=O)O [compound 71] (Myristoyl-HLGLEEPKK-OH; C-terminus assumed) ? 1.11

----------
Entries and their Cmax values follow.
Assay Overview: Pharmacokinetics in male Sprague Dawley rats after intravenous and subcutaneous injection (Example 10)
Assay type: in vivo
Applied Conditions: male, Sprague Dawley, plasma; sc, 1 μmol net peptide/kg, rat
Experimental: The peptides were reconstituted in saline (0.9% NaCl). Three male Sprague Dawley rats were used per group. Intravenous doses were administered into a lateral tail vein at the dose of 1 μmol net peptide/kg. […] Blood samples were centrifuged at 10000×g for 2 minutes at 4° C. and resultant plasma aspirated off into clean fully, labelled tubes. […] Peptides were extracted and analyzed as described in Example 9. […] All values below these limits of quantification were considered as zero.
Residues, ends and D or L forms follow the SMILES beside them. *: point of attachment. Stearoyl = CCCCCCCCCCCCCCCCCC(=O)*; Palmitoyl = CCCCCCCCCCCCCCCC(=O)*
Give your result in nM as a bare value.

Some solved cases for reference:
>>> numeric_readout("CCCCCCCCCCCCCCCCCC(=O)N[C@@H](Cc1c[nH]cn1)C(=O)N[C@@H](CC(C)C)C(=O)NCC(=O)N[C@@H](CC(C)C)C(=O)N[C@@H](CCC(=O)O)C(=O)N[C@@H](CCC(=O)O)C(=O)N1CCC[C@H]1C(=O)N[C@@H](CCCCN)C(=O)N[C@@H](CCCCN)C(=O)O [SEQ ID NO: 73, C18:0-HLGLEEPKK] (Stearoyl-HLGLEEPKK-OH; C-terminus assumed)")
540
>>> numeric_readout("CC(C)C[C@@H]1NC(=O)CNC(=O)[C@H](CC(C)C)NC(=O)[C@H](Cc2c[nH]cn2)NC(=O)[C@H](CCCCN)NC(=O)[C@H](CCCCN)NC(=O)[C@@H]2CCCN2C(=O)[C@H](CCC(=O)O)NC(=O)[C@H](CCC(=O)O)NC1=O [SEQ ID NO: 77, Cyclic(HLGLEEPKK)] (cyclo(EEPKKHLGL))")
1060

Now examine the next entry.
Could you share which Cmax value was measured for CCCCCCCCCCCCCCCC(=O)N[C@@H](Cc1c[nH]cn1)C(=O)N[C@@H](CC(C)C)C(=O)NCC(=O)N[C@@H](CC(C)C)C(=O)N[C@@H](CCC(=O)O)C(=O)N[C@@H](CCC(=O)O)C(=O)N1CCC[C@H]1C(=O)N[C@@H](CCCCN)C(=O)N[C@@H](CCCCN)C(=O)O [SEQ ID NO: 72, C16:0-HLGLEEPKK] (Palmitoyl-HLGLEEPKK-OH; C-terminus assumed) ? 410

----------
Assay Overview: Pharmacokinetics in Göttingen minipigs after intravenous and subcutaneous injection (Example 12)
Format: in vivo
Applied Conditions: Göttingen, plasma, 0.5 umol/kg; iv, 0.5 μmol/kg, minipig; read-out: mean total exposure (AUC0-t)
Residues, ends and D or L forms follow the SMILES beside them. *: point of attachment. Stearoyl = CCCCCCCCCCCCCCCCCC(=O)*
Recorded Metric: AUC(0-t) (µM·h)
Give your result in µM·h as a bare value.

Could you share which AUC(0-t) value was measured for CCCCCCCCCCCCCCCCCC(=O)N[C@@H](Cc1c[nH]cn1)C(=O)N[C@@H](CC(C)C)C(=O)NCC(=O)N[C@@H](CC(C)C)C(=O)N[C@@H](CCC(=O)O)C(=O)N[C@@H](CCC(=O)O)C(=O)N1CCC[C@H]1C(=O)N[C@@H](CCCCN)C(=O)N[C@@H](CCCCN)C(=O)O [SEQ ID NO: 73, C18:0-HLGLEEPKK] (Stearoyl-HLGLEEPKK-OH; C-terminus assumed) ? 3.75

Origin of measurements: patent US20190352358A1
